- protocolSummary: % transmission spectrum of 0.1% solution (breakthrough, steepness)
- Type: physicochemical
- condition: distance in nm over which transmittance increases from 1 to 80%
This section presents compounds with their documented Steepness values.
measuredEndpoint: Steepness (nm)

1. COC(=O)c1ccc2c(c1)CCN2/C=C(/C(=O)c1cccc(C)c1)c1ccccc1 [Compound 286]; 46
2. CC(C)(C)C(=O)/C(=C/N1CCc2cc(C(=O)OCCCOC(=O)c3ccc4c(c3)CCN4/C=C(/C(=O)C(C)(C)C)c3ccccc3)ccc21)c1ccccc1 [Compound 304]; 19
3. COC(=O)c1ccc2c(c1)CCN2/C=C(/C(=O)c1ccccc1)c1ccccc1 [Compound 247]; 34
4. CCCCC(CC)COC(=O)c1ccc2c(c1)CCN2C=C(C(=O)c1c(C)cc(C)cc1C)c1ccccc1 (centres unmarked) [Compound 303]; 24
5. CCN(/C=C(/C(=O)c1ccccc1C)c1ccccc1)c1ccccc1 [Compound 252]; 39
6. COC(=O)c1ccc(N(/C=C(\C(=O)C(F)(F)F)c2ccccc2)c2ccccc2)cc1 [Compound 229]; 33
7. COc1ccccc1C(=O)/C(=C/N(c1ccccc1)c1ccccc1)c1ccccc1 [Compound 285]; 34
8. CC1(C)CN(/C=C(/C(=O)c2ccccc2)c2ccccc2)c2ccccc21 [Compound 246]; 43

====

- protocolSummary: UV absorbance spectrum in solution (λmax, λcrit, extinction coefficients)
- Assay type: physicochemical
- condition: critical wavelength
measuredEndpoint: λcrit (nm)

1. CN(C)C(=O)C(=O)/C(=C\N1CCc2ccccc21)c1ccccc1; 384
2. CN(C)C(=O)C(=O)/C(=C/N(c1ccccc1)c1ccccc1)c1ccccc1; 378
3. COC(=O)c1ccc2c(c1)CCN2/C=C(/C(=O)c1ccc(C)cc1)c1ccccc1; 389
4. CC(C)(C)C(=O)/C(=C/N1CCc2cc(C(=O)OCCCOC(=O)c3ccc4c(c3)CCN4/C=C(/C(=O)C(C)(C)C)c3ccccc3)ccc21)c1ccccc1; 384
5. CCCCC(CC)COC(=O)C(=O)/C(=C/N1CCc2cc(C(=O)OC)ccc21)c1ccccc1 (stereo not shown); 391
6. COC(=O)c1ccc2c(c1)CCN2/C=C(/C(=O)C(=O)OC(C)(C)C(=O)OC)c1ccccc1; 386
7. O=C(OCCCOC(=O)c1ccc2c(c1)CCN2/C=C(\C(=O)C(F)(F)F)c1ccccc1)c1ccc2c(c1)CCN2/C=C(\C(=O)C(F)(F)F)c1ccccc1; 391

====

- protocolSummary: % transmission spectrum of 0.1% solution (breakthrough, steepness)
- Type: physicochemical
- condition: distance in nm over which transmittance increases from 1 to 80%
This section presents compounds with their documented Steepness values.
measuredEndpoint: Steepness (nm)

1) COC(=O)c1ccc2c(c1)CCN2C=C(C(=O)c1c(C)cc(C)cc1C)c1ccccc1 [Compound 282]; 23
2) CCN(CC)C(=O)C(=O)/C(=C/N1CCc2cc(C(=O)OC)ccc21)c1ccccc1 [Compound 290]; 22
3) COC(=O)c1ccc2c(c1)CCN2/C=C(/C(=O)c1ccccc1O[Si](C)(C)C(C)(C)C)c1ccccc1 [Compound 302]; 26
4) CCN(/C=C(/C(=O)c1ccccc1)c1ccccc1)c1ccccc1 [Compound 245]; 40
5) CCN(/C=C(\C(=O)C(F)(F)F)c1ccccc1)CCCCCCN(/C=C(\C(=O)C(F)(F)F)c1ccccc1)CC [Compound 242]; 52
6) CC(C)(C)OC(=O)C(=O)/C(=C/N(c1ccccc1)c1ccccc1)c1ccccc1 [Compound 270]; 35
7) COC(=O)c1ccc2c(c1)CCN2/C=C(/C(=O)C(=O)OC(C)(C)c1ccccc1)c1ccccc1 [Compound 280]; 21
8) COC(=O)c1ccc2c(c1)CCN2/C=C(/C(=O)C(=O)OC(C)(C)C(=O)OC)c1ccccc1 [Compound 279]; 32

====

- protocolSummary: UV absorbance spectrum in solution (λmax, λcrit, extinction coefficients)
- Format: physicochemical
- condition: critical wavelength
measuredEndpoint: λcrit (nm)

1) CN(/C=C(\C(=O)C(F)(F)F)c1ccccc1)c1ccccc1; 367
2) O=C(/C(=C\N1CCCN(/C=C(\C(=O)C(F)(F)F)c2ccccc2)c2ccccc21)c1ccccc1)C(F)(F)F; 366
3) CC(C)(C)OC(=O)C(=O)/C(=C/N1CCc2ccccc21)c1ccccc1; 389
4) CC(C)(C)C(=O)/C(=C/N(c1ccccc1)c1ccccc1)c1ccccc1; 373
5) COC(=O)c1ccc2c(c1)CCN2/C=C(/C(=O)c1ccc(C(C)(C)C)cc1)c1ccccc1; 389
6) COC(=O)c1ccc(N(/C=C(\C(=O)C(F)(F)F)c2ccccc2)c2ccccc2)cc1; 382
7) COC(=O)c1ccc2c(c1)CCN2/C=C(/C(=O)C(=O)OC(C)(C)C)c1ccccc1; 391
8) O=C(/C(=C\N1CCc2cc([N+](=O)[O-])ccc21)c1ccccc1)C(F)(F)F; 396
9) CCOC(=O)C(=O)/C(=C\N1CCc2ccccc21)c1ccccc1; 388
10) CC1(C)CN(/C=C(/C(=O)c2ccccc2)c2ccccc2)c2ccccc21; 385
11) CCN(/C=C(/C(=O)C(=O)OC(C)(C)C)c1ccccc1)c1ccccc1; 366
12) CCOc1ccc(/C(=C/N(CC)c2ccccc2)C(=O)C(F)(F)F)cc1; 369
13) CCCCN(/C=C(/C(=O)C(F)(F)F)c1ccccc1)c1ccccc1; 365
14) CCN(/C=C(/C(=O)c1c(C)cc(C)cc1C)c1ccccc1)c1ccccc1; 351
15) CC1CCc2ccccc2N1/C=C(\C(=O)C(F)(F)F)c1ccccc1 (centres unmarked); 380
16) CCN(/C=C(/C(=O)c1ccccc1)c1ccccc1)c1ccccc1; 374
17) O=C(/C(=C\N1CCCCC1)c1ccccc1)C(F)(F)F; 353

====

- protocolSummary: UV absorbance spectrum in solution (λmax, λcrit, extinction coefficients)
- Format: physicochemical
- condition: molar extinction coefficient; in M-1 cm-1 (unit assumed)
Kind request: treat 30000 as inclusive, so ε at 30000 or higher is True, anything lower is False.

1) COC(=O)c1ccc2c(c1)CCN2/C=C(/C(=O)OC1(C)CCCCC1)c1ccccc1; True
2) CCN(/C=C(\C(=O)C(F)(F)F)c1ccccc1)CCOC(=O)c1ccc2c(c1)CCN2/C=C(\C(=O)C(F)(F)F)c1ccccc1; True
3) O=C(C(=O)N1CCc2ccccc21)/C(=C/N1CCc2ccccc21)c1ccccc1; True
4) CC1(C)CN(/C=C(/C(=O)c2ccccc2)c2ccccc2)c2ccccc21; False
5) COC(=O)c1ccc2c(c1)CCN2/C=C(/C(=O)C(=O)OC(C)(C)c1ccccc1)c1ccccc1; True
6) CN(C)C(=O)C(=O)/C(=C/N(c1ccccc1)c1ccccc1)c1ccccc1; False
7) O=C(/C(=C/N(c1ccccc1)c1ccccc1)c1ccccc1)c1ccccc1; False

====

- protocolSummary: UV absorbance spectrum in solution (λmax, λcrit, extinction coefficients)
- Assay type: physicochemical
- Description: […]
measuredEndpoint: λmax (nm)

1. COC(=O)c1ccc2c(c1)CCN2/C=C(/C(=O)C(=O)OC(C)(C)c1ccccc1)c1ccccc1 [Compound 280]; 357
2. CN(C)S(=O)(=O)c1ccc(C(=O)/C(=C/N(c2ccccc2)c2ccccc2)c2ccccc2)cc1 [Compound 265]; 360
3. O=C(/C(=C\N1CCOCC1)c1ccccc1)C(F)(F)F [Compound 209]; 320
4. COc1ccc2c(c1)CCN2/C=C(\C(=O)C(F)(F)F)c1ccccc1 [Compound 200]; 381
5. COC(=O)c1ccc2c(c1)CCN2/C=C(/C(=O)OC1(C)CCCCC1)c1ccccc1 [Compound 288]; 356
6. Cc1cccc2c1N(/C=C(\C(=O)C(F)(F)F)c1ccccc1)CC2 [Compound 199]; 360
7. O=C(C(=O)N1CCc2ccccc21)/C(=C/N1CCc2ccccc21)c1ccccc1 [Compound 277]; 365
8. CCOC(=O)C(=O)/C(=C/N(CC)CC)c1ccccc1 [Compound 260]; 313

====

- protocolSummary: UV absorbance spectrum in solution (λmax, λcrit, extinction coefficients)
- Type: physicochemical
- condition: mass extinction coefficient
Kind request: treat 1000 as inclusive, so E (1%, 1 cm) at 1000 or higher is T, anything lower is F.

1. CCN(/C=C(\C(=O)C(F)(F)F)c1ccccc1)c1cccc(Br)c1; F
2. COC(=O)c1ccc2c(c1)CCN2/C=C(/C(=O)C(C)(C)C)c1ccccc1; T
3. COC(=O)c1ccc2c(c1)CCN2/C=C(/C(=O)c1ccc(C)cc1)c1ccccc1; T
4. CCC(CC)(CC)OC(=O)/C(=C/N1CCc2cc(C(=O)OC)ccc21)c1ccccc1; T

====

This section presents compounds with their documented E (1%, 1 cm) values.
- protocolSummary: UV absorbance spectrum in solution (λmax, λcrit, extinction coefficients)
- Format: physicochemical
- condition: mass extinction coefficient
measuredEndpoint: E (1%, 1 cm)

1. COc1ccc2c(c1)CCN2/C=C(\C(=O)C(F)(F)F)c1ccccc1 [Compound 200]; 1004
2. O=C(/C(=C\N1CCc2cc(F)ccc21)c1ccccc1)C(F)(F)F [Compound 198]; 890
3. CCN(/C=C(\C(=O)C(F)(F)F)c1ccccc1)CC [Compound 144]; 860
4. CCN(/C=C(\C(=O)C(F)(F)C(F)(F)C(F)(F)C(=O)/C(=C\N(CC)c1ccccc1)c1ccccc1)c1ccccc1)c1ccccc1 [Compound 190]; 616
5. O=C(/C(=C/N(c1ccccc1)c1ccccc1)c1ccccc1)c1ccccc1 [Compound 244]; 536
6. CCN(/C=C(\C(=O)C(F)(F)F)c1ccccc1)c1cccc2ccccc12 [Compound 189]; 634
7. CN(/C=C(\C(=O)C(F)(F)F)c1ccccc1)c1ccc([N+](=O)[O-])cc1 [Compound 219]; 710
8. CCN(/C=C(/C(=O)c1ccccc1OC)c1ccccc1)c1ccccc1 [Compound 276]; 711

Hello, the source for this data is patent US11512042B2, in case you need it.
